Cited source: paper PMC10698726

- assayed_system: OCT1 (Homo sapiens, UniProt O15245)
- Sequence (O15245 whole entry): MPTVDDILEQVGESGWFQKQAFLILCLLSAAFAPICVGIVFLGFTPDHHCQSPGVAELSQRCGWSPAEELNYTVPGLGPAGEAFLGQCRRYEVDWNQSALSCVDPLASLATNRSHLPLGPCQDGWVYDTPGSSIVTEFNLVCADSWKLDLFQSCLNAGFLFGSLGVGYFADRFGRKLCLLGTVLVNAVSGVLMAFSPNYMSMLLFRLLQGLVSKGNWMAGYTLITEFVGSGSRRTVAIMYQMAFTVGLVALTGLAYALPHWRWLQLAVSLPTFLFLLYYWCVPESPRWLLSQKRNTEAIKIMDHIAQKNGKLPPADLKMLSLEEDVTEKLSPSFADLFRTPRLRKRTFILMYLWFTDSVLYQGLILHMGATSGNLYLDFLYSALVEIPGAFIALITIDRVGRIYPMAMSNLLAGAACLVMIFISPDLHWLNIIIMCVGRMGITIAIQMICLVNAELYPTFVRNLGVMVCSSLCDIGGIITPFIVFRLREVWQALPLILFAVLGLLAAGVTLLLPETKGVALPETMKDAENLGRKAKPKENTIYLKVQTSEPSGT
- test_name: Inhibition of model substrate uptake in OCT1-overexpressing HEK293 cells
- Format: cell-based
- Design: expressed in transfected cells; host or cells: HEK293
- measurement_parameters: OCT1; 20 μM inhibitor, 2 μM ASP+, 5 min; mean of three experiments
Listed here are molecules together with their documented ASP+ inhibition [%].
property: ASP+ inhibition [%] (%)

molecule | assayed_system | property | units_label | value_observed
C#CCN(C)[C@H](C)Cc1ccccc1 [(R)-Deprenyl] | OCT1 (Homo sapiens, UniProt O15245) | ASP+ inhibition [%] | % | 21.6
CC(C)NC[C@H](O)COc1cccc2ccccc12 [(S)-Propranolol] | OCT1 (Homo sapiens, UniProt O15245) | ASP+ inhibition [%] | % | 40.6
C#CCN(C)[C@@H](C)Cc1ccccc1 [(S)-Deprenyl] | OCT1 (Homo sapiens, UniProt O15245) | ASP+ inhibition [%] | % | 26.1
CCC(CO)NCCNC(CC)CO [(S,S)-Ethambutol] | OCT1 (Homo sapiens, UniProt O15245) | ASP+ inhibition [%] | % | 5.5
CCN(CC)CC#CCOC(=O)[C@@](O)(c1ccccc1)C1CCCCC1 [(S)-Oxybutynine] | OCT1 (Homo sapiens, UniProt O15245) | ASP+ inhibition [%] | % | 59.3

* * *

- assayed_system: OCT3 (Homo sapiens)
- Construct: expressed in transfected cells; host or cells: HEK293
- test_name: Inhibition of model substrate uptake in OCT3-overexpressing HEK293 cells
- Type: cell-based
- measurement_parameters: HEK293, 5 min, read-out: (S)-Zolmitriptan inhibition [%], OCT3; 20 μM inhibitor, 2 μM (S)-zolmitriptan, 5 min
Parameter inhibition at 20 µM: see the listing below.
property: inhibition at 20 µM (%)

molecule | property | value_observed
CCCN[C@H]1CCc2nc(N)sc2C1 [(S)-Pramipexole] | inhibition at 20 µM | 18.4
CN(C)CCO[C@](C)(c1ccccc1)c1ccccn1 [(R)-Doxylamine] | inhibition at 20 µM | 17.7
COc1ccccc1OCCNC[C@H](O)COc1cccc2[nH]c3ccccc3c12 [(S)-Carvedilol] | inhibition at 20 µM | 32.8
CCCCN1CCCC[C@H]1C(=O)Nc1c(C)cccc1C [(S)-Bupivacaine] | inhibition at 20 µM | 37.2
CCCCN1CCCC[C@@H]1C(=O)Nc1c(C)cccc1C [(R)-Bupivacaine] | inhibition at 20 µM | 51.8
C#CCN[C@@H]1CCc2ccccc21 [(R)-Rasagiline] | inhibition at 20 µM | 10.3
CNC[C@H](O)c1cccc(O)c1 [(R)-Phenylephrine] | inhibition at 20 µM | -2.9

* * *

- assayed_system: OCT3 (Homo sapiens, UniProt O75751)
- Construct: expressed in transfected cells; host or cells: HEK293
- Sequence (O75751 1-556): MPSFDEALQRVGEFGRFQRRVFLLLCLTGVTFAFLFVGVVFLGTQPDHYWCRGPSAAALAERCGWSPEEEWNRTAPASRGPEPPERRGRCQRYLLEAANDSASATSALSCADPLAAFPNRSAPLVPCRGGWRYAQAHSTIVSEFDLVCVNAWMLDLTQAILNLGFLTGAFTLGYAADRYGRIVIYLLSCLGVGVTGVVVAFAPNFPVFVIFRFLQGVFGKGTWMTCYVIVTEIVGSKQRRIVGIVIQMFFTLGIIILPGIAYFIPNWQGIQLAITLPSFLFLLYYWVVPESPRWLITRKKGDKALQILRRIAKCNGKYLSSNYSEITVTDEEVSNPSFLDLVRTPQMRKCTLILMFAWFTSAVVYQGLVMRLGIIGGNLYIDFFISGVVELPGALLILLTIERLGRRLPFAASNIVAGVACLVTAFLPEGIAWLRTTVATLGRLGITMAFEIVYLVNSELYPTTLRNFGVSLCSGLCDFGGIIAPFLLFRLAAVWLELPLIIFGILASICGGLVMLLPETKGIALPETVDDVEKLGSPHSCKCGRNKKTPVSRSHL
- test_name: Inhibition of model substrate uptake in OCT3-overexpressing HEK293 cells
- Type: cell-based
- measurement_parameters: OCT3; 20 μM inhibitor, 2 μM (S,S)-ethambutol, 5 min
- Experimental: All experiments were carried out in transporter-overexpressing HEK293 cells. […] As for the transport experiments, 300,000 HEK293 cells were plated in poly-D-lysine-coated 24-well plates 2 days ahead of the experiment. […] Cell lysates were transferred into a black 96-well plate for the fluorescence measurement of ASP^+ or used for sample preparation for LC–MS/MS analysis. […] Fluorescence quantification was performed in technical duplicates. […]
Listed here are compounds together with their documented (S,S)-Ethambutol inhibition [%].

compound | units_label | (S,S)-Ethambutol inhibition [%]
CCN(CC)CC#CCOC(=O)[C@@](O)(c1ccccc1)C1CCCCC1 [(S)-Oxybutynine] | % | 75.7
CC(C)NC[C@H](O)COc1cccc2ccccc12 [(S)-Propranolol] | % | 32.0
C#CCN[C@H]1CCc2ccccc21 [(S)-Rasagiline] | % | 8.8
N[C@H]1CONC1=O [(S)-Cycloserine] | % | 12.2
OC[C@@H](O)CN1CCN(c2ccccc2)CC1 [(S)-Dropropizine] | % | 6.7
NC[C@@H](O)c1ccc(O)c(O)c1 [(S)-Norepinephrine] | % | 12.5
CCN1CCC[C@H]1CNC(=O)c1cc(S(=O)(=O)CC)c(N)cc1OC [(S)-Amisulpride] | % | 73.1
CNCC[C@H](Oc1ccccc1C)c1ccccc1 [(S)-Tomoxetine] | % | -5.7
CC(C)(C)NC[C@@H](O)c1ccc(O)c(CO)c1 [(S)-Salbutamol] | % | 14.5
O=C(OC1C[N+]2(CCCOc3ccccc3)CCC1CC2)C(O)(c1cccs1)c1cccs1 [(S)-Aclidinium] | % | 67.7
CNCC[C@@H](Oc1ccccc1C)c1ccccc1 [(R)-Tomoxetine] | % | 39.0
NC[C@H](O)c1ccc(O)c(O)c1 [(R)-Norepinephrine] | % | 5.7
CN(C)CCO[C@@](C)(c1ccccc1)c1ccccn1 [(S)-Doxylamine] | % | 35.8
CCCNC[C@H](O)COc1ccccc1C(=O)CCc1ccccc1 [(S)-Propafenone] | % | 76.4
